Assay: RP, Waters CORTECS T3, 100 × 2.1 mm, 2.7 µm, 0.1 mL/min, estimated dead time 2.2 min; A: water + 0.1% formic acid, pH 3; B: methanol + 0.1% formic acid, pH 3; gradient (min/%B) 0/0 1/0 6/5 30/100 35/100 35.1/0 40/0
Conditions: stereoisomer not certain
observation type: LC retention time (min)

Worked examples follow.
>  <molecule>
CCOC(=O)Cc1c[nH]c2ccccc12 [ETHYL 3-INDOLEACETATE]

>  <LC retention time, min>
18.8

$$$$
>  <molecule>
Nc1nc2c(ncn2C2OC3COP(=O)(O)OC3C2O)c(=O)[nH]1 (configuration not stated) [GUANOSINE 3',5'-CYCLIC MONOPHOSPHATE]

>  <LC retention time, min>
3.77

$$$$
>  <molecule>
Nc1cccc2ccccc12 [1-NAPHTHYLAMINE]

>  <LC retention time, min>
12.1

$$$$

P. CSCC1OC(n2cnc3c(N)ncnc32)C(O)C1O (configuration not stated) [5'-METHYLTHIOADENOSINE]
Q. CCCCCCSCC(NC(=O)CCC(N)C(=O)O)C(=O)NCC(=O)O (configuration not stated) [S-HEXYL-GLUTATHIONE]
R. Nc1nc2nc[nH]c2c(=O)[nH]1 [GUANINE]
S. N[C@@H](Cc1ccc(O)c([N+](=O)[O-])c1)C(=O)O [3-NITRO-L-TYROSINE]
T. C=Cc1c(C)c2cc3[nH]c(cc4nc(cc5nc(cc1[nH]2)C(C)=C5CCC(=O)O)C(CCC(=O)O)=C4C)c(C)c3C=C [PROTOPORPHYRIN]
Req: Place the items in sequence of falling LC retention time. Field: ranking. Enter the labels in the order requested.
Resp: T, Q, P, S, R

* * *

Assay: RP, Waters CORTECS T3, 100 × 2.1 mm, 2.7 µm, 0.15 mL/min, estimated dead time 1.5 min; A: water + 0.1% formic acid, pH 3; B: methanol + 0.1% formic acid, pH 3; gradient (min/%B) 0/0 1/0 6/5 30/100 35/100 35.1/0 40/0
Conditions: stereoisomer not certain
observation type: LC retention time (min)

Worked examples follow.
>  <compound>
Nc1nc2c(ncn2C2OC3COP(=O)(O)OC3C2O)c(=O)[nH]1 (stereo not given) [GUANOSINE 3',5'-CYCLIC MONOPHOSPHATE]

>  <LC retention time, min>
9.04

$$$$
>  <compound>
C[N+](C)(C)CCOP(=O)(O)OP(=O)([O-])OCC1OC(n2ccc(N)nc2=O)C(O)C1O (stereo not given)

>  <LC retention time, min>
1.78

$$$$
>  <compound>
CCCCCCSCC(NC(=O)CCC(N)C(=O)O)C(=O)NCC(=O)O (stereo not given)

>  <LC retention time, min>
20.8

$$$$
>  <compound>
Cn1c(=O)c2c(ncn2C)n(C)c1=O

>  <LC retention time, min>
14.2

$$$$
>  <compound>
CC1NC(=O)NC1CCCCCC(=O)O (stereo not given)

>  <LC retention time, min>
16.9

$$$$

I. NC(CCSSCCC(N)C(=O)O)C(=O)O (stereo not given)
II. O=CCc1c[nH]c2ccccc12
Req: Please let me know which one, I or II , has a lower measured LC retention time value. Please identify the chosen entry by its label.
Resp: I
(I: 1.78 min, II: 13.3 min)

P. Nc1nc2nccnc2c(=O)[nH]1
Q. CC12CCC(=O)C=C1CCC1C2C(O)CC2(C)C1CCC2(O)C(=O)CO (stereo not given)
Req: Which has the higher LC retention time, P or Q ? Please identify the chosen entry by its label.
Resp: Q
(Q: 22 min, P: 5.95 min)

P. Nc1ncnc2nc[nH]c12
Q. Cc1cc2nc[nH]c2cc1C
R. CCOC(=O)Cc1c[nH]c2ccccc12 [ETHYL 3-INDOLEACETATE]
Req: Put the items in order so that reported LC retention time rises from first to last. Field: ranking. Enter the labels in the order requested.
Resp: P, Q, R

* * *

Assay: RP, Waters ACQUITY UPLC BEH C18, 100 × 2.1 mm, 1.7 µm, 0.1 mL/min, estimated dead time 2.2 min; A: water + 0.1% formic acid, pH 3; B: methanol + 0.1% formic acid, pH 3; gradient (min/%B) 0/5 5/5 25/95 25.1/100 35/100 35.1/5 45/5
Details: stereoisomer not certain
observation type: LC retention time (min)

Worked examples follow.
>  <compound>
O=C([O-])Cc1c[nH]c2ccccc12 [INDOLE-3-ACETATE]

>  <result units>
min

>  <LC retention time>
18.6

$$$$
>  <compound>
N[C@@H](Cc1cc(I)c(Oc2ccc(O)cc2)c(I)c1)C(=O)O

>  <result units>
min

>  <LC retention time>
20.2

$$$$

1. CC(=O)OCC(=O)C1CCC2C3CCC4=CC(=O)CCC4(C)C3CCC12C (stereo not given) [DEOXYCORTICOSTERONE ACETATE]
2. O=c1[nH]c(=O)c2[nH]c(=O)[nH]c2[nH]1 [URATE]
3. N[C@@H](Cc1cc(I)c(O)c(I)c1)C(=O)O
Req: Put the items in order so that reported LC retention time rises from first to last. Field: ranking. Enter the labels in the order requested.
Resp: 2, 3, 1
(2: 2.66 min, 3: 16.1 min, 1: 25.3 min)

* * *

Test: RP, Waters ACQUITY UPLC BEH C18, 100 × 2.1 mm, 1.7 µm, 0.1 mL/min, estimated dead time 2.2 min; A: water + 0.1% formic acid, pH 3; B: methanol + 0.1% formic acid, pH 3; gradient (min/%B) 0/5 5/5 25/95 25.1/100 35/100 35.1/5 45/5
Conditions: stereoisomer not certain
observation type: LC retention time (min)

>  <molecule>
O=C(O)c1cc(=O)c2ccccc2[nH]1 [4-HYDROXY-2-QUINOLINECARBOXYLIC ACID]

>  <result units>
min

>  <LC retention time>
14.3

$$$$
>  <molecule>
C=Cc1c(C)c2cc3[nH]c(cc4nc(cc5nc(cc1[nH]2)C(C)=C5CCC(=O)O)C(CCC(=O)O)=C4C)c(C)c3C=C [PROTOPORPHYRIN]

>  <result units>
min

>  <LC retention time>
30.2

$$$$
>  <molecule>
NCCc1c[nH]c2ccc(O)cc12 [SEROTONIN]

>  <result units>
min

>  <LC retention time>
2.66

$$$$

P. O=c1[nH]c(=O)c2[nH]cnc2[nH]1 [XANTHINE]
Q. NC(Cc1cc(I)c(Oc2cc(I)c(O)c(I)c2)c(I)c1)C(=O)O (centres undefined) [THYROXINE]
R. NC(=O)Cc1c[nH]c2ccccc12 [INDOLE-3-ACETAMIDE]
Req: Place the items in sequence of falling LC retention time. Field: ranking. Enter the labels in the order requested.
Resp: Q, R, P
(Q: 23.5 min, R: 15.6 min, P: 2.66 min)

* * *

Assay: RP, Waters CORTECS T3, 100 × 2.1 mm, 2.7 µm, 0.2 mL/min, estimated dead time 1.1 min; A: water + 0.045% formic acid + 0.11% ammonium hydroxide, pH 7; B: methanol; gradient (min/%B) 0/5 5/5 25/95 25.1/100 35/100 35.1/5 45/5
Conditions: stereoisomer not certain
observation type: LC retention time (min)

>  <compound>
CC(C)=CCNc1ncnc2nc[nH]c12 [N6-(DELTA2-ISOPENTENYL)-ADENINE]

>  <result units>
min

>  <LC retention time>
16.9

$$$$
>  <compound>
Cn1cnc2c(ncn2C2OC(CO)C(O)C2O)c1=N (centres undefined) [1-METHYLADENOSINE]

>  <result units>
min

>  <LC retention time>
10.7

$$$$
>  <compound>
NCCc1c[nH]c2ccc(O)cc12 [SEROTONIN]

>  <result units>
min

>  <LC retention time>
10.7

$$$$
>  <compound>
Cc1cc2nc3[nH]c(=O)[nH]c(=O)c3nc2cc1C [LUMICHROME]

>  <result units>
min

>  <LC retention time>
16.4

$$$$
>  <compound>
c1ncc2[nH]cnc2n1 [PURINE]

>  <result units>
min

>  <LC retention time>
3.15

$$$$
>  <compound>
CC1C(=O)Nc2ccccc21 (centres undefined) [3-METHYL-2-OXINDOLE]

>  <result units>
min

>  <LC retention time>
15.2

$$$$

1. CC12CCC(=O)C=C1CCC1C2C(=O)CC2(C)C1CCC2(O)C(=O)CO (centres undefined) [CORTISONE]
2. CCCCCCCCCCCCCCCC(=O)OCC(COP(=O)(O)OCCN)OC(=O)CCCCCCCCCCCCCCC (racemic) [1,2-DIPALMITOYL-RAC-GLYCERO-3-PHOSPHOETHANOLAMINE]
Req: Which has the higher LC retention time, 1 or 2 ? Please identify the chosen entry by its label.
Resp: 2
(2: 28.7 min, 1: 18 min)

P. CC(=O)OCC(=O)C1CCC2C3CCC4=CC(=O)CCC4(C)C3CCC12C (centres undefined) [DEOXYCORTICOSTERONE ACETATE]
Q. CC1NC(=O)NC1CCCCCC(=O)O (centres undefined) [DETHIOBIOTIN]
Req: Which has the higher LC retention time, P or Q ? Please identify the chosen entry by its label.
Resp: P
(P: 22.4 min, Q: 9.32 min)

1. CCOC(=O)Cc1c[nH]c2ccccc12 [ETHYL 3-INDOLEACETATE]
2. CN1CCC[C@H]1c1cccnc1 [(S)-NICOTINE]
Req: Which has the higher LC retention time, 1 or 2 ? Please identify the chosen entry by its label.
Resp: 1
